Origin of values: patent US8269015B2

- assayTarget: CCR2 (Homo sapiens, UniProt P41597)
- Sequence (P41597 1-360 isoform P41597-2): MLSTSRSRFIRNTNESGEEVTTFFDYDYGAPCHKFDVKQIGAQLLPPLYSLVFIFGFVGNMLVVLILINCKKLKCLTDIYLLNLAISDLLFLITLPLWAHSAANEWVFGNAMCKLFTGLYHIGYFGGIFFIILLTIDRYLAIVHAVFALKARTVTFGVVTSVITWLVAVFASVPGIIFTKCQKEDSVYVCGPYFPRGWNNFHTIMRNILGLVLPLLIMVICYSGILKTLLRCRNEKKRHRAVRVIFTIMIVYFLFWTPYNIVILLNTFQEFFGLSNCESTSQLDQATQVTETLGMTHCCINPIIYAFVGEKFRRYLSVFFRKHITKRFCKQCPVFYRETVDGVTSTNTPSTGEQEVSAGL
- testDetails: MCP-1 Receptor Binding Assay in THP-1 Cells (125I labeled MCP-1)
- cond: 0.5 nM 125I labeled MCP-1, 2 hours at 30° C., read-out: Inhibition of MCP-1 Binding IC50, CCR2 Binding
measuredProperty: log10(IC50) (log10 of the value in µM)
Please keep in mind that the values are log10 of IC50 expressed in µM.

Observe how each entry below is paired with its result.
{"compound": "Cn1cccc(C2CCC(N3CC(NC(=O)CNC(=O)c4cccc(C(F)(F)F)c4)C3)CC2)c1=O (stereo not shown)", "log10(IC50)": -0.20}
{"compound": "CCn1cc(C2CCC(N3CC(NC(=O)CNC(=O)c4cccc(C(F)(F)F)c4)C3)CC2)ccc1=O (stereo not shown) [Example 39a]", "log10(IC50)": -1.43}
{"compound": "NC(=O)c1ncc(C2CCC(N3CC(NC(=O)CNC(=O)c4cccc(C(F)(F)F)c4)C3)CC2)s1 (stereo not shown)", "log10(IC50)": 0.00}
{"compound": "Nc1ccnc(C2CCC(N3CC(NC(=O)CNC(=O)c4cccc(C(F)(F)F)c4)C3)CC2)c1 (stereo not shown)", "log10(IC50)": -0.60}
{"compound": "COc1ncccc1C1CCC(N2CC(NC(=O)CNC(=O)c3cccc(C(F)(F)F)c3)C2)CC1 (stereo not shown)", "log10(IC50)": -0.68}

Exercise: Can you share its log10(IC50)? I mean this compound: CC(=O)Nc1cccnc1C1CCC(N2CC(NC(=O)CNC(=O)c3cccc(C(F)(F)F)c3)C2)CC1 (stereo not shown)
Key: -0.42

Exercise: Can you share its log10(IC50)? I mean this compound: CS(=O)(=O)Nc1cccc(C2CCC(N3CC(NC(=O)CNC(=O)c4cccc(C(F)(F)F)c4)C3)CC2)n1 (stereo not shown)
Key: -0.08

---

- assayTarget: CCR2 (Homo sapiens, UniProt P41597)
- testDetails: MCP-1 Receptor Binding Assay in THP-1 Cells (125I labeled MCP-1)
- cond: 0.5 nM 125I labeled MCP-1, 2 hours at 30° C., read-out: Inhibition of MCP-1 Binding IC50, CCR2 Binding
- Experimental: Compounds of the invention were subjected to various representative biological tests. […] MCP-1 Receptor Binding Assay in THP-1 Cells Human monocytic cell line THP-1 cells were obtained from American Type Culture Collection (Manassas, Va., USA). […] The cell density was maintained […]. 1 μM cold MCP-1 was used for nonspecific binding.
Structures can show the parent of a compound that is named as a salt.
compounds and their reported pIC50
Worth noting: pIC50 values are minus log10 of concentrations stated in mol/L.

Observe how each entry below is paired with its result.
{"compound": "COc1ccc(C2CCC(N3CC(NC(=O)CNC(=O)c4cccc(C(F)(F)F)c4)C3)CC2)cn1 (single isomer, unassigned)", "assayTarget": "CCR2 (Homo sapiens, UniProt P41597)", "pIC50": 8.15}
{"compound": "O=C(CNC(=O)c1cccc(C(F)(F)F)c1)NC1CN(C2CCC(c3c[nH]c(=O)s3)CC2)C1 (stereo not drawn)", "assayTarget": "CCR2 (Homo sapiens, UniProt P41597)", "pIC50": 6.47}

API: the following record is the query input.
Exercise: Can you share its pIC50? I mean this compound: O=C(CNC(=O)c1cccc(C(F)(F)F)c1)NC1CN(C2CCC(c3ccc(O)cn3)CC2)C1 (stereo not drawn) [Example 4, hemisuccinate salt]
Key: 7.89

---

- assayTarget: CCR2 (Homo sapiens)
- testDetails: MCP-1 Receptor Binding Assay in THP-1 Cells (125I labeled MCP-1)
- cond: 0.5 nM 125I labeled MCP-1, 2 hours at 30° C., read-out: Inhibition of MCP-1 Binding IC50, CCR2 Binding
pIC50: −log10 of the molar value.
I would appreciate it if you labelled entries True when pIC50 is 7 or higher, otherwise False.

{"compound": "Nc1ccncc1C1CCC(N2CC(NC(=O)CNC(=O)c3cccc(C(F)(F)F)c3)C2)CC1 (single isomer, unassigned) [Example 27a]", "discreteLabel": "False"}
{"compound": "O=C(CNC(=O)c1cccc(C(F)(F)F)c1)NC1CN(C2CCC(c3nc4c(c(=O)[nH]3)CCCC4)CC2)C1 (mixture of isomers) [Example 61]", "discreteLabel": "False"}
{"compound": "Cc1ccc(O)c(C2CCC(N3CC(NC(=O)CNC(=O)c4cccc(C(F)(F)F)c4)C3)CC2)n1 (stereo not drawn) [Example 6]", "discreteLabel": "True"}

Turning to the following compound.
Exercise: # bool: pIC50 of Nc1cccc(C2CCC(N3CC(NC(=O)CNC(=O)c4cccc(C(F)(F)F)c4)C3)CC2)n1 (single isomer, unassigned) [Example 22a] >= 7
Key: True
